Recorded values, source ChEMBL document CHEMBL3734738.

assay-system: UniProtKB Q13547
Sequence (Q13547 whole entry): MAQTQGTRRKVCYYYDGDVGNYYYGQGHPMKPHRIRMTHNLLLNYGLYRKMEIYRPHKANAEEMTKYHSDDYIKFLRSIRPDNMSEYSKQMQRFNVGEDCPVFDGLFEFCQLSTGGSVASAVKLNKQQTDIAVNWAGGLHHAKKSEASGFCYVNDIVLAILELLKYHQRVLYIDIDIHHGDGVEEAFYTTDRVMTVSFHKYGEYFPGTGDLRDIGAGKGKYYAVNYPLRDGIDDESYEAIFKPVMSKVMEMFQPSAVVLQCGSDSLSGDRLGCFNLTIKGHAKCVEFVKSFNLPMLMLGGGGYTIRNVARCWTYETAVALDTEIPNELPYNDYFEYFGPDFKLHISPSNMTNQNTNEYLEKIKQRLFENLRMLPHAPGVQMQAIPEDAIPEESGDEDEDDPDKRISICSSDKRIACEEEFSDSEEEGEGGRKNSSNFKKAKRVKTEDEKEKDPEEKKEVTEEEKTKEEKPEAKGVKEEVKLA
experiment-notes: Inhibition of recombinant HDAC1 (unknown origin) expressed in Escherichia coli BL21(DE3) after 60 mins using trichostatin A by label-free mass spectrometry-based SAMDI assay
Below is a list of entries, each paired with its recorded pIC50 value.
Remember, pIC50 is on a log scale: it is -log10 of the molar concentration.

- structure-string: "CC[C@H]1OC(=O)[C@H](C)C(=O)[C@H](C)[C@@H](O[C@@H]2O[C@H](C)C[C@H](N(C)Cc3ccc(-c4cn(CCCCCC(=O)NO)nn4)cc3)[C@H]2O)[C@@](C)(OC)C[C@@H](C)C2=NCCN3C(=O)O[C@@]1(C)[C@H]3[C@H]2C"
  pIC50: 7.14
- structure-string: "CC[C@@H]1OC(=O)[C@H](C)[C@@H](O[C@@H]2C[C@](C)(OC)[C@H](O)[C@@H](C)O2)[C@@H](C)[C@@H](O[C@@H]2O[C@H](C)C[C@H](N(C)Cc3ccc(-c4cn(CCCCC(=O)NO)nn4)cc3)[C@H]2O)[C@](C)(O)C[C@@H](C)CN(C)[C@H](C)[C@@H](O)[C@]1(C)O"
  pIC50: 5.78
- structure-string: "CC[C@@H]1OC(=O)[C@@H](C)[C@H](O[C@H]2C[C@@](C)(OC)[C@](O)(CN(C)Cc3ccc(-c4cn(CCCCC(=O)NO)nn4)cc3)[C@H](C)O2)[C@H](C)[C@H](O[C@@H]2O[C@H](C)C[C@H](N(C)C)[C@H]2O)[C@@](C)(OC)C[C@H](C)C(=O)[C@@H](C)[C@@H](O)[C@@]1(C)O"
  pIC50: 5.43

Ask | Notebook: pull reported pIC50 for UniProtKB Q13547, entry "CC[C@@H]1OC(=O)[C@H](C)[C@@H](O[C@@H]2C[C@](C)(OC)[C@@](O)(CN(C)Cc3ccc(-c4cn(CCCCCC(=O)NO)nn4)cc3)[C@@H](C)O2)[C@@H](C)[C@@H](O[C@@H]2O[C@H](C)C[C@H](N(C)C)[C@H]2O)[C@](C)(O)C[C@@H](C)CN(C)[C@H](C)[C@@H](O)[C@]1(C)O"
Reply | 6.69

---

assay-system: Histone deacetylase 8 (Homo sapiens, UniProt Q9BY41)
Sequence (Q9BY41 whole entry): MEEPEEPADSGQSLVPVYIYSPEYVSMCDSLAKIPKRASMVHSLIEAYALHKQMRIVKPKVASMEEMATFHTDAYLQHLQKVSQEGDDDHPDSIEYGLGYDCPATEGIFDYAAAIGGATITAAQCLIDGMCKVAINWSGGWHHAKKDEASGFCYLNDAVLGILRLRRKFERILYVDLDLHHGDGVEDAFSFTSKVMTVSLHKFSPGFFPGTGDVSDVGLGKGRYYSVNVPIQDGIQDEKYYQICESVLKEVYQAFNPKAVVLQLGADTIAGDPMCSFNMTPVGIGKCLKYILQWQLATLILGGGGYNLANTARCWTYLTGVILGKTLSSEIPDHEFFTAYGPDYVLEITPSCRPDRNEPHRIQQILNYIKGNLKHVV
experiment-notes: Inhibition of recombinant HDAC8 (unknown origin) expressed in Escherichia coli BL21(DE3) after 60 mins using trichostatin A by label-free mass spectrometry-based SAMDI assay
Below is a list of entries, each paired with its recorded pIC50 value.
Remember, pIC50 is on a log scale: it is -log10 of the molar concentration.

Recorded pIC50, per entry:
- compound: "CC[C@H]1OC(=O)[C@H](C)C(=O)[C@H](C)[C@@H](O[C@@H]2O[C@H](C)C[C@H](N(C)Cc3ccccc3-c3cn(CCCCCC(=O)NO)nn3)[C@H]2O)[C@@](C)(OC)C[C@@H](C)C2=NCCN3C(=O)O[C@@]1(C)[C@H]3[C@H]2C"
  pIC50: 5.92
- compound: "CC[C@@H]1OC(=O)[C@@H](C)[C@H](O[C@H]2C[C@@](C)(OC)[C@@H](O)[C@H](C)O2)[C@H](C)[C@H](O[C@@H]2O[C@H](C)C[C@H](N(C)Cc3ccc(-c4cn(CCCCC(=O)NO)nn4)cc3)[C@H]2O)[C@@](C)(OC)C[C@H](C)C(=O)[C@@H](C)[C@@H](O)[C@@]1(C)O"
  pIC50: 6.06
- compound: "CC[C@H]1OC(=O)[C@@H](C)[C@H](O[C@H]2C[C@@](C)(OC)[C@](O)(CN(C)C)[C@H](C)O2)[C@H](C)[C@H](O[C@H]2O[C@@H](C)C[C@@H](N(C)Cc3ccc(-c4cn(CCCCCCC(=O)NO)nn4)cc3)[C@@H]2O)[C@@](C)(O)C[C@H](C)CN(C)[C@@H](C)[C@H](O)[C@@]1(C)O"
  pIC50: 6.13

Ask | # lookup: pIC50 of CC[C@@H]1OC(=O)[C@@H](C)[C@H](O[C@H]2C[C@@](C)(OC)[C@@H](O)[C@H](C)O2)[C@H](C)[C@H](O[C@@H]2O[C@H](C)C[C@H](N(C)Cc3ccc(-c4cn(CCCCCCC(=O)NO)nn4)cc3)[C@H]2O)[C@@](C)(OC)C[C@H](C)C(=O)[C@@H](C)[C@@H](O)[C@@]1(C)O (stereo in doubt)
Reply | 6.15

Ask | # lookup: pIC50 of "CC[C@H]1OC(=O)[C@H](C)C(=O)[C@H](C)[C@@H](O[C@@H]2O[C@H](C)C[C@H](N(C)Cc3ccc(-c4cn(CCCC(=O)NO)nn4)cc3)[C@H]2O)[C@@](C)(OC)C[C@@H](C)C2=NCCN3C(=O)O[C@@]1(C)[C@H]3[C@H]2C"
Reply | 5.65

Ask | # lookup: pIC50 of "CC[C@H]1OC(=O)[C@H](C)C(=O)[C@H](C)[C@@H](O[C@@H]2O[C@H](C)C[C@H](N(C)Cc3ccccc3-c3cn(CCCCCCC(=O)NO)nn3)[C@H]2O)[C@@](C)(OC)C[C@@H](C)C2=NCCN3C(=O)O[C@@]1(C)[C@H]3[C@H]2C"
Reply | 5.61

Ask | # lookup: pIC50 of "CC[C@@H]1OC(=O)[C@@H](C)[C@H](O[C@H]2C[C@@](C)(OC)[C@](O)(CN(C)Cc3ccc(-c4cn(CCCCCCC(=O)NO)nn4)cc3)[C@H](C)O2)[C@H](C)[C@H](O[C@@H]2O[C@H](C)C[C@H](N(C)C)[C@H]2O)[C@@](C)(OC)C[C@H](C)C(=O)[C@@H](C)[C@@H](O)[C@@]1(C)O"
Reply | 5.74

Ask | # lookup: pIC50 of "CC[C@H]1OC(=O)[C@H](C)C(=O)[C@H](C)[C@@H](O[C@@H]2O[C@H](C)C[C@H](N(C)Cc3ccc(-c4cn(CCCCC(=O)NO)nn4)cc3)[C@H]2O)[C@@](C)(OC)C[C@@H](C)C2=NCCN3C(=O)O[C@@]1(C)[C@H]3[C@H]2C"
Reply | 5.49

Ask | # lookup: pIC50 of "CC[C@H]1OC(=O)[C@H](C)C(=O)[C@H](C)[C@@H](O[C@@H]2O[C@H](C)C[C@H](N(C)Cc3cccc(-c4cn(CCCCCC(=O)NO)nn4)c3)[C@H]2O)[C@@](C)(OC)C[C@@H](C)C2=NCCN3C(=O)O[C@@]1(C)[C@H]3[C@H]2C"
Reply | 5.49

Ask | # lookup: pIC50 of "CC[C@@H]1OC(=O)[C@@H](C)[C@H](O[C@H]2C[C@@](C)(OC)[C@@H](O)[C@H](C)O2)[C@@H](C)[C@H](O[C@H]2O[C@@H](C)C[C@@H](N(C)C)[C@@H]2O)[C@](C)(O)C[C@H](C)CN(Cc2ccc(-c3cn(CCCCCCC(=O)NO)nn3)cc2)[C@H](C)[C@H](O)[C@@]1(C)O"
Reply | 5.77
